target: FGFR3 (UniProt P22607)
Sequence (P22607 whole entry, looked up): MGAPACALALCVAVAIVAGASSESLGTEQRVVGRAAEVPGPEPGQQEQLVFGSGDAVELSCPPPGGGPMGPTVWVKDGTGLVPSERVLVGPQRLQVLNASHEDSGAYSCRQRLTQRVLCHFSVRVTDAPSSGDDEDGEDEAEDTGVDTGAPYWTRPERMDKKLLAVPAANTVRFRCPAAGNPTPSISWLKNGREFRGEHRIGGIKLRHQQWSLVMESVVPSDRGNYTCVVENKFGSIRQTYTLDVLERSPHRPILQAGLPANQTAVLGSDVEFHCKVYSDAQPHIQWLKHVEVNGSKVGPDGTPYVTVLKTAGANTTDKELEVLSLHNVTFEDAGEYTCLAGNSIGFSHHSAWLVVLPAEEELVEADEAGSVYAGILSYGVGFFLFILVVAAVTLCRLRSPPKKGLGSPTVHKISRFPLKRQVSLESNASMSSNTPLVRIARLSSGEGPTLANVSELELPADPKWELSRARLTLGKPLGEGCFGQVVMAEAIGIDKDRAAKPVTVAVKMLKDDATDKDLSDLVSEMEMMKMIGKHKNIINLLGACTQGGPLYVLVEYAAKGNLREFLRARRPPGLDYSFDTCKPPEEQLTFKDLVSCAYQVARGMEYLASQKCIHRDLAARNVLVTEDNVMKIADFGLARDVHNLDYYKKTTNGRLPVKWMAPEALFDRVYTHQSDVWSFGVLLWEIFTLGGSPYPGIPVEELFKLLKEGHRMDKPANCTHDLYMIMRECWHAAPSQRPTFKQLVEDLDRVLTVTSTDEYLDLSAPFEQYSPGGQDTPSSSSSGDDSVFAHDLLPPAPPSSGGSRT
measurement-description: phosphorylation enrichment, bacterial display (enrichment ratio); higher = better substrate or ligand; peptides without Tyr show the background;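 also: 11-residue human phosphosite peptides and single-mutation variants displayed on the E. coli surface, counted by deep sequencing, each peptide's frequency after selection divided by its frequency in the unselected input library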;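 also: frequency after pTyr selection over input frequency; kinase dosed for 20-30% of maximal phosphorylation in three min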
Please provide measured phosphorylation enrichment for the entries that follow.
Kindly provide the number alone.

May I ask what phosphorylation enrichment has been recorded for GINDDYGQLKN [NBN_Y679] ?
0.61

And the next one, KLPYLYDDPFS [GPX2_Y127_P126L] ?
0.689

And the next one, EKSREYHRLYE [PIK3R1_Y463_D464H] ?
0.466

And the next one, RIVEIYTRRLQ [GCH1_Y175_S176T] ?
0.632

And the next one, NHYKICNLCAE [PTEN_Y68_Y68C] ?
0.519

And the next one, EGTGHYLCNAC [GATA5_Y208_D203E] ?
0.566

And the next one, VIVRMYDYHVL [RPF2_Y109_G106V] ?
2.12

And the next one, RRVLVYGGRGA [QDPR_Y16] ?
0.702

And the next one, CRAVKYLQMVR [AVPR2_Y117_G122R] ?
0.527

And the next one, YGMSSYITRED [FNDC3B_Y180_T179S] ?
0.696

And the next one, LVSCAYQMARG [FGFR1_Y605_V607M] ?
0.882

And the next one, RPGGRYPVARR [SHANK3_Y1569_S1566G] ?
0.599

And the next one, SQQTFCRVSNM [ABCD1_Y181_Y181C_YF] ?
0.615
